# measured-on: BSA (UniProt P02769)
# Sequence (P02769 25-607 limits assumed): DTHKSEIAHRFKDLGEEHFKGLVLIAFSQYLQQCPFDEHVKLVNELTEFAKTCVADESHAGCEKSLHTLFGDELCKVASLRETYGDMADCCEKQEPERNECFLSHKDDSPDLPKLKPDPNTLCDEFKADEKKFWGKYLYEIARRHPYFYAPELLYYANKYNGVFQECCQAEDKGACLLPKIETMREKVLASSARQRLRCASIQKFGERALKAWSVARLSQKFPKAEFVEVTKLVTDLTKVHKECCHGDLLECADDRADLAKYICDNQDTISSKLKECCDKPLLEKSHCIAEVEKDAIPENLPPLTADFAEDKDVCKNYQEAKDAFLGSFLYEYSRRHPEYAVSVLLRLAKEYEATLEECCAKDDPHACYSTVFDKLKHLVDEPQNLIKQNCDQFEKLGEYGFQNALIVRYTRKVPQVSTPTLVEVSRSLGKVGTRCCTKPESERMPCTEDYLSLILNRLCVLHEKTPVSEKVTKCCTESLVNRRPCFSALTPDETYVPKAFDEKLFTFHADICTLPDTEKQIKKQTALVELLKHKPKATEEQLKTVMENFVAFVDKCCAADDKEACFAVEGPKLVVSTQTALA
# method-notes: scFv ELISA
Recorded OD450, one value per entry.
Report as a plain number; the unit OD450 is understood.

PcOxP_DB03_A03 (scFv, V domains shown, scFv in periplasmic extract) VH: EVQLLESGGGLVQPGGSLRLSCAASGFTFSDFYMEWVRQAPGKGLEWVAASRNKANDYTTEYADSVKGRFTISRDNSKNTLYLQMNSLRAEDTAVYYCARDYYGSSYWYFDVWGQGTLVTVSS VL: DIQMTQSPSSLSASVGDRVTITCTASESLYSSKHKVHYLAWYQQKPGKAPKLLIYGASFRYIGVPSRFSGSGSGTDFTLTISSLQPEDFATYYCAQFYSYPLTFGGGTKVEIK: 0.09

As a next step, examine the binder that follows.
Lookup: Given the entry PcOxP_DB01_C10 (scFv, V domains shown, scFv in periplasmic extract) VH: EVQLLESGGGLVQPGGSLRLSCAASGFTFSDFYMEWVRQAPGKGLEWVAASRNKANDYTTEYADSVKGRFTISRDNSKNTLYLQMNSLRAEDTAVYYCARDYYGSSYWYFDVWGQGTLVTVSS VL: DIVMTQSPDSLAVSLGERATINCTSSQSLLSSSHNKNYLAWYQQKPGQPPKLLIYGASNRYIGVPDRFSGSGSGTDFTLTISSLQAEDVAVYYCAQFYSYPLTFGGGTKVEIK , report its measured OD450.
Found: 0.07
